System: L. major spt2^− promastigotes
protocol-summary: microbe, parasite or virus in culture
Type: cell-based, Leishmania major
test-conditions: Leishmania major, 48 h, read-out: EC50 in spt2^−
pEC50: recorded values
Convention used: pEC50 is expressed as -log10 of the molar concentration.

Known results for compounds:
>  <compound>
CCCCCCCCCCCCCCCCCCOCC(COP(=O)([O-])OCC[N+](C)(C)C)OC (racemic)

>  <pEC50>
5.27

$$$$
>  <compound>
CC(=O)N1CCN(c2ccc(OCC3COC(Cn4ccnc4)(c4ccc(Cl)cc4Cl)O3)cc2)CC1 (centres unmarked)

>  <pEC50>
8.00

$$$$
>  <compound>
OC1(c2ccc(-c3ccccc3)cc2)CN2CCC1CC2 (centres unmarked) [3-(Biphenyl-4-yl)-3-hydroxyquinuclidine]

>  <pEC50>
5.95

$$$$
>  <compound>
CN(C/C=C/C#CC(C)(C)C)Cc1cccc2ccccc12

>  <pEC50>
5.48

$$$$

Continue with the next compound.
Query block: May I ask what pEC50 has been recorded for CCC(C)n1ncn(-c2ccc(N3CCN(c4ccc(OCC5COC(Cn6cncn6)(c6ccc(Cl)cc6Cl)O5)cc4)CC3)cc2)c1=O (centres unmarked) ?
Result block: 8.41
